Each recorded value in this set is attributed to PubChem BioAssay (Tox21).

target: Estrogen receptor beta (Homo sapiens); assay: qHTS assay to identify small molecule agonists of the estrogen receptor beta (ER-beta) signaling pathway (AID 1259377); details: ER-beta-UAS-bla HEK293T, beta-lactamase FRET ratio, 16 h; series mostly up to 92.4 µM
Results filed as inconclusive are left out. The source made the active and inactive calls. Calls come from the whole dose curve; as a rule, active = well fitted activation curve with a large enough effect in the signal ratio in the repeat runs (not every such curve was filed as active); inconclusive = weak or mixed curves, or effect the other way; inactive = flat fitted curve, though single readings scatter; the % refers to the signal ratio.
Hi! Could you answer with just one of these? true = active, false = inactive

| COMPOUND | QUALITATIVE LABEL |
| --- | --- |
| C=CCc1cc(OC)c2c(c1)OCO2 | false |
| C=C(Cl)CSC(=S)N(CC)CC | false |

Switching to the query record.
In: Hi, do you know how O=C(NC(O)C(Cl)(Cl)Cl)NC(O)C(Cl)(Cl)Cl (stereo unspecified) came out in this test?
Out: false
